Reference source for all entries: the supplement of paper PMC10567573

For each of the variants below, state its protein stability index.
B1: GFOD1 (parent)
chain: EEAEELAKEMSVPFYTSRIDEVLL

# Variants of: B1
# Assay notes: protein stability index of a GFP-peptide fusion (GPS, HEK-293T) (PSI 1-6); higher = more stable;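 further: lentivirally expressed fusions sorted by FACS into six bins by GFP to DsRed ratio, PSI derived from sequencing read proportions per bin multiplied by bin number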
# Test settings: c terminus: a fixed tail appended
Answers are plain numbers.

L24G 4.11
L24Y 3.2
R18N 4.4
E9I 2.15
D20F 2
L24V 4

Quick batch: protein stability index for everything below.
1. E9P
2. S17A
3. T16G
4. Y15Q
5. V22A
6. I19G

a:
[3.01, 3.09, 3.78, 4.42, 4.53, 4.48]

Quick batch: protein stability index for everything below.
1. L24Q
2. D20P
3. A7L
4. F14S
5. L23Q
6. R18V
7. D20H

a:
1: 4.78; 2: 3.55; 3: 2.93; 4: 4.37; 5: 4.72; 6: 2.64; 7: 2.73

Quick batch: protein stability index for everything below.
1. D20V
2. E4R
3. P13C
4. E5A
5. S11W
6. D20E
7. V12N
8. E9F

a:
[2.08, 3.52, 3.27, 3.45, 2.76, 3.91, 4.56, 3.12]

Quick batch: protein stability index for everything below.
1. S17I
2. L24C
3. P13W
4. E4H

a:
1. 2.38
2. 4.04
3. 1.97
4. 3.4

Quick batch: protein stability index for everything below.
1. D20Y
2. E9R
3. S17H

a:
2.47
2.7
3.71

Quick batch: protein stability index for everything below.
1. A7T
2. A3E
3. M10Y
4. E4P
5. S11D
6. S17L

a:
[3.79, 4.32, 3.63, 3.6, 4.5, 2.09]

Quick batch: protein stability index for everything below.
1. R18L
2. Y15K
3. Y15I

a:
1: 3.05; 2: 4.41; 3: 3.62

Quick batch: protein stability index for everything below.
1. E21T
2. M10I
3. L23T
4. T16A
5. E5H
6. M10C
7. M10R
8. S11E

a:
[3.65, 3.57, 3.87, 4, 3.6, 4.53, 3.81, 4.74]
